Source listed as the supplement of paper PMC3545927.

Molecular target: furin, P09958;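 further: purified furin at 1:10 enzyme:substrate in 50 mM HEPES pH 7.5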
Sequence (P09958 whole entry): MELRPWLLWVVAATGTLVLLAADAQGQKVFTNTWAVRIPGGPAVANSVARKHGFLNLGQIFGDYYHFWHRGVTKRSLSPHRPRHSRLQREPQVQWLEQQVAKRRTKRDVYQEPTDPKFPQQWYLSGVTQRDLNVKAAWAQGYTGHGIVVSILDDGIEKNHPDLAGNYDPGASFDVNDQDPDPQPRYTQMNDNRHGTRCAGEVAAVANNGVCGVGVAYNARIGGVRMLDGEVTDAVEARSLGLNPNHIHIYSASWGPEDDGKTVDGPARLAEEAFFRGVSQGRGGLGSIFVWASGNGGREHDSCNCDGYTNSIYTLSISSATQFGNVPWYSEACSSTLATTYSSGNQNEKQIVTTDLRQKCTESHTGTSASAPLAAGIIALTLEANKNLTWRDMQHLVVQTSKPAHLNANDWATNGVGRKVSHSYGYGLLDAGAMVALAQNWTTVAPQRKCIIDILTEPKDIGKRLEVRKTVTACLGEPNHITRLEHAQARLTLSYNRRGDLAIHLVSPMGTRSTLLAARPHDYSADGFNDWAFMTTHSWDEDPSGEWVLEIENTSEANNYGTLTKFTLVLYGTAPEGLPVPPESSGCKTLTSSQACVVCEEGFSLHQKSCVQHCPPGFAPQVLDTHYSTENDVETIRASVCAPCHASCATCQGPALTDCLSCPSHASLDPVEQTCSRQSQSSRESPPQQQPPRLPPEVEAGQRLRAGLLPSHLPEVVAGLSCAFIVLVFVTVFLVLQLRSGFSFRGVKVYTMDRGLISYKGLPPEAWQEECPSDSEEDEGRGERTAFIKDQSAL
Test: furin cleavage Z-score vs untreated control; higher = more cleavage, active = 3.5 or more, inactive = 1 or less, 8 variable residues between constant flanks
Details: 15 min
Some of the results follow. The hit rate among all sequences tested is not known here.
Value Kind: furin cleavage Z-score

{"Chain": "CARRRKSLKTAGNASASA [FS-2783]", "Value Kind": "furin cleavage Z-score", "Reported Measurement": 1.16}
{"Chain": "CAPWITPRCLAGNASASA [HC461]", "Value Kind": "furin cleavage Z-score", "Reported Measurement": 1.18}
{"Chain": "CARDLRGLAEAGNASASA [FS-2904]", "Value Kind": "furin cleavage Z-score", "Reported Measurement": 0.23}
{"Chain": "CALWSRYGRFAGNASASA [FS-1034]", "Value Kind": "furin cleavage Z-score", "Reported Measurement": 1.92}
{"Chain": "CAHHNLVYSTAGNASASA [HC1387]", "Value Kind": "furin cleavage Z-score", "Reported Measurement": 0.355}
{"Chain": "CAWYELTPAEAGNASASA [HC924]", "Value Kind": "furin cleavage Z-score", "Reported Measurement": -1.36}
{"Chain": "CARDRRSPAEAGNASASA [FS-3152]", "Value Kind": "furin cleavage Z-score", "Reported Measurement": 8.19}
